- Subject of test: COX-2 (Homo sapiens)
- Construct: purchased Cayman Chemical
- Sequence (P35354 18-604): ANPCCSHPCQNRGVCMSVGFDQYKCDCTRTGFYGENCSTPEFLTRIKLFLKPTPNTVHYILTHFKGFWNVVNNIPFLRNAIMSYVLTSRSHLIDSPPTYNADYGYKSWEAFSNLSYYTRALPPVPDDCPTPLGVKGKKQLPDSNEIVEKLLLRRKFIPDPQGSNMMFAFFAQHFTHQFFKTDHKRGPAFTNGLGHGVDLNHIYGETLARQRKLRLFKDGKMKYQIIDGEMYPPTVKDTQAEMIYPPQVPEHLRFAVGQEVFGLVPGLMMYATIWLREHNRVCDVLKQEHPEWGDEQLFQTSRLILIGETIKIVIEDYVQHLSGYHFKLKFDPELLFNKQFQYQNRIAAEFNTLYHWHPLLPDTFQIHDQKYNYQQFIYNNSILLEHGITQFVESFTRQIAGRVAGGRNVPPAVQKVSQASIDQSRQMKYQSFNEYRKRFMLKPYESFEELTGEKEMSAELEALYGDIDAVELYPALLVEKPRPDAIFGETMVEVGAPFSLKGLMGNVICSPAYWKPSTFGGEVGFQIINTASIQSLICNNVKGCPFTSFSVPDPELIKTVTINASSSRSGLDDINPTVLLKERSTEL
- Test details: COX-2 inhibition assay (COX fluorescent inhibitor assay kit)
- Format: biochemical
- Protocol conditions: read-out: IC50 COX-2
pIC50: −log10 of the molar value.

| Compound | Subject of test | pIC50 |
| --- | --- | --- |
| C/C=C(/C=O)[C@@H](CC=O)CC(=O)OCCc1ccc(O)cc1 [oleocanthal, reference compound] | COX-2 (Homo sapiens) | 4.78 |
| CC(=O)OCCc1ccc(O)c(O)c1 [AcHyTy, hydroxytyrosol acetate] | COX-2 (Homo sapiens) | 4.88 |

---

Target or system 5-LOX (Glycine max, UniProt P08170); recorded quantity IC50.

| Molecule | IC50 |
| --- | --- |
| C/C=C(/C=O)[C@@H](CC=O)CC(=O)OCCc1ccc(O)c(O)c1 | 45 µM |
| CC(=O)OCCc1ccc(O)c(O)c1 [AcHyTy, hydroxytyrosol acetate] | 107 µM |

---

Target or system UniProt P05979; recorded quantity IC50.
Sequence (P05979 25-600): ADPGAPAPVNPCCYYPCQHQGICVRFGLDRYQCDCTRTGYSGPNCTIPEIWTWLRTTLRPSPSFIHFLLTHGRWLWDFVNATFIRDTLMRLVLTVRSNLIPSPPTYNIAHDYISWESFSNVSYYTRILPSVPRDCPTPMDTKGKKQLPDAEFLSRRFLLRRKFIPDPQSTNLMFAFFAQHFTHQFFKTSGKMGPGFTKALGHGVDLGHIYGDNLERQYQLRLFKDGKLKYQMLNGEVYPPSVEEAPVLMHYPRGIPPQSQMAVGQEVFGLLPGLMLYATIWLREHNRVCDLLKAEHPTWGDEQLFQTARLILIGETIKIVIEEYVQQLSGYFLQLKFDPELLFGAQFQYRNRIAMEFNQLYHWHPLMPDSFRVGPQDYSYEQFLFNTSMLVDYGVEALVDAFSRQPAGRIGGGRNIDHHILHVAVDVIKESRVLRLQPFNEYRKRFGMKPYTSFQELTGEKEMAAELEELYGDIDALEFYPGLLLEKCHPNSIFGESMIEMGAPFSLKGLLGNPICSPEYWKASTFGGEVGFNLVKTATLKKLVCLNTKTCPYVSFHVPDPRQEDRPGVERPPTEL
Quantity kind: IC50

| Compound | Quantity kind | Reading |
| --- | --- | --- |
| C/C=C(/C=O)[C@@H](CC=O)CC(=O)OCCc1ccc(O)cc1 [oleocanthal, reference compound] | IC50 | < 0.1 µM |
| C/C=C(/C=O)[C@@H](CC=O)CC(=O)OCCc1ccc(O)c(O)c1 | IC50 | 1.46 µM |
| CC(=O)OCCc1ccc(O)c(O)c1 [AcHyTy, hydroxytyrosol acetate] | IC50 | 0.3 µM |
| OCCc1ccc(O)c(O)c1 [HyTy, hydroxytyrosol] | IC50 | 0.13 µM |
